condition summary: in acetonitrile, 308.15 K
parameter: solubility (mole fraction)
Response field accepts a number only; no unit should be typed.

Challenge: // returns reported solubility (mole fraction) for input COC(=O)C1=C(C)NC(C)=C(C(=O)OCC(C)C)C1c1ccccc1[N+](=O)[O-] (stereo unspecified)
Response given: 0.0241

====

condition summary: in n-propanol, 278.15 K
parameter: solubility (mole fraction)
Response field accepts a number only; no unit should be typed.

Challenge: // returns reported solubility (mole fraction) for input COC(=O)C1=C(C)NC(C)=C(C(=O)OCC(C)C)C1c1ccccc1[N+](=O)[O-] (stereo unspecified)
Response given: 0.00367

====

condition summary: in ethyl acetate, 293.15 K
parameter: solubility (mole fraction)

Challenge: // returns reported solubility (mole fraction) for input COC(=O)C1=C(C)NC(C)=C(C(=O)OCC(C)C)C1c1ccccc1[N+](=O)[O-] (stereo unspecified)
Response given: 0.0248

====

condition summary: in n-propanol, 283.15 K
parameter: solubility (mole fraction)
Response field accepts a number only; no unit should be typed.

Challenge: // returns reported solubility (mole fraction) for input COC(=O)C1=C(C)NC(C)=C(C(=O)OCC(C)C)C1c1ccccc1[N+](=O)[O-] (stereo unspecified)
Response given: 0.00448

====

condition summary: in isopropanol, 298.15 K
parameter: solubility (mole fraction)
Response field accepts a number only; no unit should be typed.

Challenge: // returns reported solubility (mole fraction) for input COC(=O)C1=C(C)NC(C)=C(C(=O)OCC(C)C)C1c1ccccc1[N+](=O)[O-] (stereo unspecified)
Response given: 0.00956

====

condition summary: in acetonitrile, 293.15 K
parameter: solubility (mole fraction)

Challenge: // returns reported solubility (mole fraction) for input COC(=O)C1=C(C)NC(C)=C(C(=O)OCC(C)C)C1c1ccccc1[N+](=O)[O-] (stereo unspecified)
Response given: 0.0145

====

condition summary: in water, 293.15 K
parameter: solubility (mole fraction)
Response field accepts a number only; no unit should be typed.

Challenge: // returns reported solubility (mole fraction) for input COC(=O)C1=C(C)NC(C)=C(C(=O)OCC(C)C)C1c1ccccc1[N+](=O)[O-] (stereo unspecified)
Response given: 8.67e-06

====

condition summary: in n-propanol, 298.15 K
parameter: solubility (mole fraction)

Challenge: // returns reported solubility (mole fraction) for input COC(=O)C1=C(C)NC(C)=C(C(=O)OCC(C)C)C1c1ccccc1[N+](=O)[O-] (stereo unspecified)
Response given: 0.00811

====

condition summary: in acetonitrile, 278.15 K
parameter: solubility (mole fraction)

Challenge: // returns reported solubility (mole fraction) for input COC(=O)C1=C(C)NC(C)=C(C(=O)OCC(C)C)C1c1ccccc1[N+](=O)[O-] (stereo unspecified)
Response given: 0.00826

====

condition summary: in isopropanol, 293.15 K
parameter: solubility (mole fraction)
Response field accepts a number only; no unit should be typed.

Challenge: // returns reported solubility (mole fraction) for input COC(=O)C1=C(C)NC(C)=C(C(=O)OCC(C)C)C1c1ccccc1[N+](=O)[O-] (stereo unspecified)
Response given: 0.0081

====

condition summary: in acetonitrile, 303.15 K
parameter: solubility (mole fraction)
Response field accepts a number only; no unit should be typed.

Challenge: // returns reported solubility (mole fraction) for input COC(=O)C1=C(C)NC(C)=C(C(=O)OCC(C)C)C1c1ccccc1[N+](=O)[O-] (stereo unspecified)
Response given: 0.0204
